Glucose (plasma) values for the molecules below.
assay: 7-day oral gavage study, metabolic parameters, body weight and food consumption in CR SD rats; assay type: in vivo, rat; conditions: 25 mg/kg/day oral gavage 7 days, n=5
recordedMetric: Glucose (plasma) (mmol/L)

1. N.O=C(O)C(F)(F)C(F)(F)C(F)(F)C(F)(F)C(F)(F)C(F)(F)C(F)(F)F [APFO, Ammonium perfluorooctanoate]    11.99
2. O=C(O)C(F)(F)C(F)(F)C(F)(F)C(F)(F)C(F)(F)C(F)(F)F [PFHA, Perfluoroheptanoic acid]    18.15
3. COC(=O)C(F)(F)C(F)(F)C(F)(F)C(F)(F)C(F)(F)C(F)(F)C(F)(F)F [MPOA, Methyl perfluorooctanoate]    12.99
4. O=C(O)C(F)(F)C(F)(F)C(F)(F)C(F)(F)F [PFPenA, Perfluoropentanoic acid]    16.67
5. O=C(O)C(F)(F)C(F)(F)F [PFPA, Perfluropropionic acid]    14.97
6. FC(F)(F)C(F)(F)C(F)(F)C(F)(F)C(F)(F)C(F)(F)C(F)(F)C(F)(F)F [PFO, Perfluorooctane]    17.13
7. O=C(O)C(F)(F)C(F)(F)C(F)(F)C(F)(F)C(F)(F)C(F)(F)C(=O)O [PFSA, Perfluorosuberic acid (C8)]    15.9
8. O=C(O)C(F)(F)C(F)(F)C(F)(F)C(F)(F)C(F)(F)C(F)(F)C(F)(F)F [PFOA, Perfluorooctanoic acid]    10.01

Values from patent US20060052451A1
